FYI, the data here is from patent US20240051985A1.

# IC50 per entry
- target_entity: METTL3/METTL14 (Homo sapiens, UniProt Q86U44)
- Sequence (Q86U44 whole entry, species assumed): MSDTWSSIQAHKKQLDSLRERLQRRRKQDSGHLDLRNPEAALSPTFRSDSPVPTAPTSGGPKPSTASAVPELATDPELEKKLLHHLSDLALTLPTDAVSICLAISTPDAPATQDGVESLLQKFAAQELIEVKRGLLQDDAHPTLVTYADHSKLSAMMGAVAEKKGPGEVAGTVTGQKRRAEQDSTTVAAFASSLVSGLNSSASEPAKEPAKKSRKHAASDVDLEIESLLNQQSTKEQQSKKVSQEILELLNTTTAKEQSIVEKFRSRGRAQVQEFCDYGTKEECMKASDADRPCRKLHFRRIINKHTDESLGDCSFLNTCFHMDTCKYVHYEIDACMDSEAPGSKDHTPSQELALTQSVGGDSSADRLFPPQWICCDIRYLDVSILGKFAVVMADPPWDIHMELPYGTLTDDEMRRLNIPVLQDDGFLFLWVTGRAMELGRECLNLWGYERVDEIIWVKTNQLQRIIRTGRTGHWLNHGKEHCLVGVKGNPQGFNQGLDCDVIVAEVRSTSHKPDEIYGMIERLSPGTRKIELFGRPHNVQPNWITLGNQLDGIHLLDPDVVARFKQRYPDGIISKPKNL
- Sequence (Q9HCE5 whole entry partner, species assumed): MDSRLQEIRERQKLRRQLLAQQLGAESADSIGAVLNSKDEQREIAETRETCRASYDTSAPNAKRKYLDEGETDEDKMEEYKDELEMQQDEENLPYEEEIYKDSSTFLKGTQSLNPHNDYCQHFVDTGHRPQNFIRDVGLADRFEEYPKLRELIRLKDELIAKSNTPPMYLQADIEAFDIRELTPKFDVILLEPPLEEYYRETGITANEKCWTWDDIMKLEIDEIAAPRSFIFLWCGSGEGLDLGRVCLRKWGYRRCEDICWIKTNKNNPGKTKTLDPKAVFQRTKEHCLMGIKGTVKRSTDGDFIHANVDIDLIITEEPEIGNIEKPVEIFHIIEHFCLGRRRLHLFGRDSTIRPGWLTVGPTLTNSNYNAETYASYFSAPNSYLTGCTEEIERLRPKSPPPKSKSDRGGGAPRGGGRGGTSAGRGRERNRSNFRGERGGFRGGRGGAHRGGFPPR
- test_details: METTL3-14 standard enzyme assay (3H-SAM flashplate)
- condition_details: Table 4; METTL3 biochemical assay
reported_metric: IC50

> print(dat)
                                smiles.entry                             target.entity          result
 1  CN1CCC(N(CCCc2nn[nH]n2)C(=O)[C@H]2O[C@@H](n3cc(-c4ccn(C)n4)c4c(N)ncnc43)[C@H](O)[C@@H]2O)CC1  METTL3/METTL14 (Homo sapiens, UniProt Q86U44)       ≥ 1000 nM
 2  Cc1cc(F)ccc1NC(=O)[C@H]1O[C@@H](n2cc(-c3ccn(C)n3)c3c(N)ncnc32)[C@H](O)[C@@H]1O  METTL3/METTL14 (Homo sapiens, UniProt Q86U44)  100 to 1000 nM
 3  CN1CC[C@@H](NC(=O)[C@H]2O[C@@H](n3cc(-c4ccn(C)n4)c4c(N)ncnc43)[C@H](O)[C@@H]2O)C1  METTL3/METTL14 (Homo sapiens, UniProt Q86U44)  100 to 1000 nM
 4  Cn1ccc(-c2cn([C@@H]3O[C@H](C(=O)Nc4ccc5ccc(N6CCC6)nc5c4)[C@@H](O)[C@@H]3F)c3ncnc(N)c23)n1  METTL3/METTL14 (Homo sapiens, UniProt Q86U44)         < 10 nM
 5  CNc1cccc(CCNC(=O)[C@H]2O[C@@H](n3cc(-c4ccn(C)n4)c4c(N)ncnc43)[C@H](O)[C@@H]2O)n1  METTL3/METTL14 (Homo sapiens, UniProt Q86U44)  100 to 1000 nM
 6  Cn1ccc(-c2cn([C@@H]3O[C@H](C(=O)Nc4ccc5ccccc5n4)[C@@H](O)[C@H]3O)c3ncnc(N)c23)n1  METTL3/METTL14 (Homo sapiens, UniProt Q86U44)       ≥ 1000 nM
 7  CCCCc1ccc(NC(=O)[C@H]2O[C@@H](n3cc(-c4ccn(C)n4)c4c(N)ncnc43)[C@H](O)[C@@H]2O)cc1  METTL3/METTL14 (Homo sapiens, UniProt Q86U44)  100 to 1000 nM
 8  CN1CCC(N(C(=O)[C@H]2O[C@@H](n3cc(-c4ccn(C)n4)c4c(N)ncnc43)[C@H](O)[C@@H]2O)C2CC2)CC1  METTL3/METTL14 (Homo sapiens, UniProt Q86U44)    10 to 100 nM
 9  CN1CCC(N(CCCNc2ccccn2)C(=O)[C@H]2O[C@@H](n3cc(-c4ccn(C)n4)c4c(N)ncnc43)[C@H](O)[C@@H]2O)CC1  METTL3/METTL14 (Homo sapiens, UniProt Q86U44)       ≥ 1000 nM
10  Cn1ccc(-c2cn([C@@H]3O[C@H](C(=O)NCc4ccccc4-n4cccn4)[C@@H](O)[C@H]3O)c3ncnc(N)c23)n1  METTL3/METTL14 (Homo sapiens, UniProt Q86U44)  100 to 1000 nM
11  Cn1ccc(-c2cn([C@@H]3O[C@H](C(=O)Nc4ccc(-c5ccccc5)cn4)[C@@H](O)[C@H]3O)c3ncnc(N)c23)n1  METTL3/METTL14 (Homo sapiens, UniProt Q86U44)       ≥ 1000 nM
12  Cn1ccc(-c2cn([C@@H]3O[C@H](C(=O)N[C@H](CO)c4ccccc4)[C@@H](O)[C@H]3O)c3ncnc(N)c23)n1  METTL3/METTL14 (Homo sapiens, UniProt Q86U44)       ≥ 1000 nM

----------
- target_entity: METTL3/METTL14 (Homo sapiens)
- test_details: METTL3-14 standard enzyme assay (3H-SAM flashplate)
- condition_details: Table 4; METTL3 biochemical assay
pIC50: −log10 of the molar value.
Each record here notes measured pIC50.
reported_metric: pIC50

> print(dat)
                               smiles.entry                  target.entity        result
1  Cn1ccc(-c2cn([C@@H]3O[C@H](C(=O)Nc4ccccc4)[C@@H](O)[C@H]3O)c3ncnc(N)c23)n1  METTL3/METTL14 (Homo sapiens)  6.00 to 7.00
2  Cn1ccc(-c2cn([C@@H]3O[C@H](C(=O)Nc4ccc(CN5CCS(=O)(=O)CC5)cc4)[C@@H](O)[C@H]3O)c3ncnc(N)c23)n1  METTL3/METTL14 (Homo sapiens)  6.00 to 7.00
3  Cn1ccc(-c2cn([C@@H]3O[C@H](C(=O)Nc4ccc(Br)c(Cl)c4)[C@@H](O)[C@H]3O)c3ncnc(N)c23)n1  METTL3/METTL14 (Homo sapiens)        ≤ 6.00
4  Cn1ccc(-c2cn([C@@H]3O[C@H](C(=O)Nc4ccc(-c5ccccc5)cc4)[C@@H](O)[C@H]3O)c3ncnc(N)c23)n1  METTL3/METTL14 (Homo sapiens)  6.00 to 7.00
5  Cn1ccc(-c2cn([C@@H]3O[C@H](C(=O)N[C@H]4C[C@H](O)C4)[C@@H](O)[C@H]3O)c3ncnc(N)c23)n1  METTL3/METTL14 (Homo sapiens)        ≤ 6.00
6  Cn1ccc(-c2cn([C@@H]3O[C@H](C(=O)Nc4ccc5nsnc5c4)[C@@H](O)[C@H]3O)c3ncnc(N)c23)n1  METTL3/METTL14 (Homo sapiens)  6.00 to 7.00

----------
- target_entity: METTL3/METTL14 (Homo sapiens, UniProt Q86U44)
- test_details: METTL3-14 standard enzyme assay (3H-SAM flashplate)
- condition_details: Table 4; METTL3 biochemical assay
- Experimental: METTL3-14 Standard Enzyme Assay Assays were performed in a 25 μl-volume in 384-well V-bottom polypropylene microplates (Greiner Bio-One, cat. No. 781280) at ambient temperature. […] Following two washing cycles with 0.1% Tween-20, the plates were sealed and read on a TopCount (PerkinElmer, Waltham, MA) plate-based scintillation counter. […]
IC50 by entry:
reported_metric: IC50

> print(dat)
                                    compound                             target.entity  reported.metric          result
 1  COCC(C)NC(=O)[C@H]1O[C@@H](n2cc(-c3ccn(C)n3)c3c(N)ncnc32)[C@H](O)[C@@H]1O (stereo partly shown)  METTL3/METTL14 (Homo sapiens, UniProt Q86U44)             IC50       ≥ 1000 nM
 2  CNC(=O)c1ccc(NC(=O)[C@H]2O[C@@H](n3cc(-c4ccn(C)n4)c4c(N)ncnc43)[C@H](O)[C@@H]2O)cc1  METTL3/METTL14 (Homo sapiens, UniProt Q86U44)             IC50  100 to 1000 nM
 3  Cn1ccc(-c2cn([C@@H]3O[C@H](C(=O)NCCc4ccc(-c5ccccc5)cc4)[C@@H](O)[C@H]3O)c3ncnc(N)c23)n1  METTL3/METTL14 (Homo sapiens, UniProt Q86U44)             IC50  100 to 1000 nM
 4  C#CCCCN(C(=O)[C@H]1O[C@@H](n2cc(-c3ccn(C)n3)c3c(N)ncnc32)[C@H](O)[C@@H]1O)C1CCN(C)CC1  METTL3/METTL14 (Homo sapiens, UniProt Q86U44)             IC50  100 to 1000 nM
 5  Cn1ccc(-c2cn([C@@H]3O[C@H](C(=O)Nc4cccnc4)[C@@H](O)[C@H]3O)c3ncnc(N)c23)n1  METTL3/METTL14 (Homo sapiens, UniProt Q86U44)             IC50  100 to 1000 nM
 6  Cn1ccc(-c2cn([C@@H]3O[C@H](C(=O)NCCc4ccccc4)[C@@H](O)[C@H]3O)c3ncnc(N)c23)n1  METTL3/METTL14 (Homo sapiens, UniProt Q86U44)             IC50  100 to 1000 nM
 7  Cn1ccc(-c2cn([C@@H]3O[C@H](C(=O)Nc4cc(F)cc(F)c4)[C@@H](O)[C@H]3O)c3ncnc(N)c23)n1  METTL3/METTL14 (Homo sapiens, UniProt Q86U44)             IC50       ≥ 1000 nM
 8  Cn1ccc(-c2cn([C@@H]3O[C@H](C(=O)Nc4ccnn4C)[C@@H](O)[C@H]3O)c3ncnc(N)c23)n1  METTL3/METTL14 (Homo sapiens, UniProt Q86U44)             IC50  100 to 1000 nM
 9  Cn1ccc(-c2cn([C@@H]3O[C@H](C(=O)Nc4ccc(Oc5ccccc5)cc4)[C@@H](O)[C@H]3O)c3ncnc(N)c23)n1  METTL3/METTL14 (Homo sapiens, UniProt Q86U44)             IC50  100 to 1000 nM
10  CN1CCC(N(CCCN)C(=O)[C@H]2O[C@@H](n3cc(-c4ccn(C)n4)c4c(N)ncnc43)[C@H](O)[C@@H]2O)CC1  METTL3/METTL14 (Homo sapiens, UniProt Q86U44)             IC50    10 to 100 nM
11  Cn1ccc(-c2cn([C@@H]3O[C@H](C(=O)N4CCC[C@H](C(N)=O)C4)[C@@H](O)[C@H]3O)c3ncnc(N)c23)n1  METTL3/METTL14 (Homo sapiens, UniProt Q86U44)             IC50       ≥ 1000 nM
12  C[C@@H](NC(=O)[C@H]1O[C@@H](n2cc(-c3ccn(C)n3)c3c(N)ncnc32)[C@H](O)[C@@H]1O)C1CCNCC1  METTL3/METTL14 (Homo sapiens, UniProt Q86U44)             IC50       ≥ 1000 nM
13  Cn1ccc(-c2cn([C@@H]3O[C@H](C(=O)NC4CCOCC4)[C@@H](O)[C@H]3O)c3ncnc(N)c23)n1  METTL3/METTL14 (Homo sapiens, UniProt Q86U44)             IC50       ≥ 1000 nM
